Target: T1, mGLP‐2 receptor (mouse, UniProt Q5IXF8 1-512)
T1 construct: mouse glucagon-like peptide-2 receptor, pcDNA3.1(+) plasmid from ThermoFisher; also called mouse GLP‐2 receptor; source: COS-7, transiently transfected (pcDNA3.1(+)), on whole cells
T1 sequence (looked up): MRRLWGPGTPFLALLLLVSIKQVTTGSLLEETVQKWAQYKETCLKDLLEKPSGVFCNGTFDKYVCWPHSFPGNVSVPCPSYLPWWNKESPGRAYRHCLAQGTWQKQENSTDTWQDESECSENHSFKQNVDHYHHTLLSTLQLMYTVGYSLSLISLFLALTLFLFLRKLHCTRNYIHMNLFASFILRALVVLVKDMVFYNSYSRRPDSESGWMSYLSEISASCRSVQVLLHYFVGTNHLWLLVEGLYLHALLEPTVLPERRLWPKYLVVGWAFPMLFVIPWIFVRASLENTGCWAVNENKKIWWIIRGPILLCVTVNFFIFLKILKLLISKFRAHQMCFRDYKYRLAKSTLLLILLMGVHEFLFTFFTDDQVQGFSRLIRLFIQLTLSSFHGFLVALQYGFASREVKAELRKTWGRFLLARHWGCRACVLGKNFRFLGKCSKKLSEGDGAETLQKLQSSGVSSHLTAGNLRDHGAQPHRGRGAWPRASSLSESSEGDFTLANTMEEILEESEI
Settings: one partner purified
EXPERIMENTAL READOUT: Ki

Any idea what its Ki is? The binder is HADGSFSDEMNTILDNLAARDFINWLIQTKITD [hGLP‐2(1–33)] 18 nM
